Reference for the values: a collection of fitness landscapes (doi:10.1016/j.celrep.2020.107928)

B1: Caulobacter ParB omega fusion; a variant is named by its letters at X, in order, B8GW30 (parent)
chain: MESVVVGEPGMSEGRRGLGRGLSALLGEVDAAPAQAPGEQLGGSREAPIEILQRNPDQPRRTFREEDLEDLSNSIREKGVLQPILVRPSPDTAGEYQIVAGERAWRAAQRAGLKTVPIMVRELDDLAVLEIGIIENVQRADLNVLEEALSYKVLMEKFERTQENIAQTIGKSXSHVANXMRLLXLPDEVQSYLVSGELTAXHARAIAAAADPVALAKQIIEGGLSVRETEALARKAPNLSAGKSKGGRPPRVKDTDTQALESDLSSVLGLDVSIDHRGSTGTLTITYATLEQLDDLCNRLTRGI

# Variants of: B1
# ASSAY_TEXT: one-hybrid fitness for binding NBS DNA (the Noc-binding site; scaled: cognate 1, non-cognate 0); higher = stronger binding
# CONDITION_NOTES: with NBS DNA site
Whole data set: some 81,000 sequences, median “one-hybrid fitness for binding NBS DNA” near -0.1, cut for the highest 2% near 0.36. The list comes from a sample in which the highest values are over-represented; it also holds close analogues and randomly drawn sequences.
Reported values of one-hybrid fitness for binding NBS DNA for individual entries

Examples from the recorded data:
- RESIDUE_CHANGE: "SCKG"
  QUANTITY_KIND: "one-hybrid fitness for binding NBS DNA"
  VALUE_REPORTED: "≤ 0.2"
- RESIDUE_CHANGE: "RHQS"
  QUANTITY_KIND: "one-hybrid fitness for binding NBS DNA"
  VALUE_REPORTED: 0.455
- RESIDUE_CHANGE: "NGRT"
  QUANTITY_KIND: "one-hybrid fitness for binding NBS DNA"
  VALUE_REPORTED: "≤ 0.2"
- RESIDUE_CHANGE: "QCGR"
  QUANTITY_KIND: "one-hybrid fitness for binding NBS DNA"
  VALUE_REPORTED: 0.764
- RESIDUE_CHANGE: "QCVY"
  QUANTITY_KIND: "one-hybrid fitness for binding NBS DNA"
  VALUE_REPORTED: "≤ 0.2"

Query string: Requested field: one-hybrid fitness for binding NBS DNA. Item: KRRN
Result string: 0.217

Query string: Requested field: one-hybrid fitness for binding NBS DNA. Item: QPGR
Result string: ≤ 0.2

Query string: Requested field: one-hybrid fitness for binding NBS DNA. Item: QTGG
Result string: 0.204
